Reference for the values: patent US8293768B2

value-type: melting point

# compound, value-observed
data = [
    ("CCOC(=O)c1sc(N2CCN(Cc3ccc(Cl)cc3)C2=O)nc1C", "117 to 119 °C"),
]

Supply melting point value. Item: Cc1nc(N2CCN(Cc3cccc(C(=O)O)c3)C2=O)sc1C(=O)NCc1ccccc1 [Example 25]
120 to 123 °C

Answer with reported melting point of Cc1nc(-n2ccn(Cc3ccc(F)cc3)c2=O)sc1C(=O)NCc1cccnc1
158 to 159 °C

Name the recorded melting point of the item Cc1nc(N2CCN(CCC3CC3)C2=O)sc1C(=O)NCc1cccnc1 in your answer.
146 to 147 °C

Supply recorded melting point for Cc1nc(-n2cnn(CC3CC3)c2=O)sc1C(=O)NCc1cccnc1 here.
116 to 117 °C

Specify reported melting point for the compound shown: Cc1nc(N2CCN(CCC3CC3)C2=O)sc1C(=O)NCc1ccccc1
137 to 138 °C

Report measured melting point; entry is Cc1nc(N2CCN(Cc3ccccc3)C2=O)sc1C(=O)NCc1cccnc1
153 to 154 °C

Given Cc1nc(N2C(=O)N(Cc3ccc(F)cc3)CC2O)sc1C(=O)NCc1ccccc1 (stereo not drawn) , respond with its melting point.
133 to 134 °C

Item Cc1nc(N2C(=O)N(Cc3ccc(C(F)(F)F)cc3)CC2O)sc1C(=O)NCc1cccnc1 (stereo not drawn) : provide melting point
171 to 172 °C

Provide measured melting point value, entry: Cc1nc(N2CCN(Cc3ccc(OC(F)(F)F)cc3)C2=O)sc1C(=O)NCc1cccnc1
165 to 166 °C

Report melting point for Cc1nc(-n2cnn(Cc3ccc(F)cc3)c2=O)sc1C(=O)NCc1cc[nH]n1
178 to 179 °C

Write down melting point measured for item Cc1nc(N2CCN(Cc3ccc(F)cc3)C2=O)sc1C(=O)NCc1ccncn1
175 to 176 °C

Please report melting point for the following compound: Cc1cc(N2CCN(Cc3ccc(N)cc3)C2=O)sc1C(=O)NCc1cccnc1
118 to 120 °C

Read off the recorded melting point for Cc1nc(-n2cnn(CC(=O)Nc3ccc(Cl)cc3)c2=O)sc1C(=O)NCc1cccnc1
255 to 256 °C

* * *

Below: a set of entries, each annotated with reported melting point.

# compound-string, melting point
records = [
    ("Cc1nc(-n2cnn(Cc3ccc(F)cc3)c2=O)sc1C(=O)NCc1cn(C)cn1", "225 to 226 °C"),
    ("Cc1nc(N2CCN(Cc3ccccc3)C2=N)sc1C(=O)NCc1ccc(F)cc1", "142 to 144 °C"),
    ("CCOC(=O)c1sc(N2C[C@@H](Cc3ccccc3)NC2=O)nc1C", "102 to 103 °C"),
    ("Cc1nc(N2CCCN(CC3CC3)C2=O)sc1C(=O)NCc1cccnc1", "142 to 145 °C"),
    ("Cc1nc(N2CCN(Cc3ccc(OC(F)(F)F)cc3)C2=O)sc1C(=O)NCc1ccccc1", "197 to 198 °C"),
]

Quickly give me recorded melting point for Cc1cc(-n2cnn(Cc3ccc(F)cc3)c2=O)sc1C(=O)NCc1ncco1
163 to 165 °C

Please look at this compound and report its melting point: Cc1nc(-n2ccn(Cc3ccc(C(F)(F)F)cc3)c2=O)sc1C(=O)NCc1cccnc1
163 to 164 °C

Give the reported melting point for this compound. Cc1nc(-n2cnn(CCO)c2=O)sc1C(=O)NCc1cccnc1
201 to 202 °C
